# Tested on: K4 kissing-loop RNA reporter;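 further: bound reporter read as fluorescence of individual clusters on recovered sequencing chips by microscopy, with normalized cluster intensities fitted with a binding model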
# MEASUREMENT_DESCRIPTION: apparent KD of K4 kissing-loop reporter; higher = weaker reporter binding
# CONDITION_CONTEXT: Eterna round: R107; input ligand: arginine 13.2 mM
MEASURED_QUANTITY: apparent KD of K4 kissing-loop reporter (nM)

sequence_content="CCUUGAGAGUGAUGUUCUCGAGUGAAAGUCAAGGAUAUCCCGCGGUGGAGAAGGUGAUGGCGAACUUGACUGCUGUCAGUCCUAA [theeternabot_exclusion_KL_FMN_A_10]" experimental_target="K4 kissing-loop RNA reporter" test_value=105
sequence_content="GGAAGAAGUGGUGUUGAUUAAGAAGCGGAAGGAGCGCCGAAGAAGGCAGGUAGGUCGCCGAAAUAUAGUGAUGUUAUAUAAAAGG [ExArg.A]" experimental_target="K4 kissing-loop RNA reporter" test_value=170
sequence_content="AAGUUGAACUGAAGGAGCGAGAAAUAGAAUGUAAGAAUAUAUGCUAGUGAUGUUAGAAAUUCUCAGGUAGGUCGCAGUAAGUUUU [V2]" experimental_target="K4 kissing-loop RNA reporter" test_value=418
